target entity: STAT6 (Homo sapiens)
Construct: stably transfected HaCaT keratinocyte cell line, which expresses NanoLuc luciferase reporter gene under the transcriptional control of the STAT6 responsive promoter; endogenous in cells; host or cells: HaCaT keratinocyte reporter cell line (stably transfected with a NanoLuc reporter)
assay comment: STAT6 Reporter Luciferase Assay (IL-13 stimulated HaCaT keratinocyte NanoLuc reporter cells)
Assay type: cell-based
condition set: STAT6 NanoLuc luciferase reporter, IL-13 stimulated HaCaT keratinocyte cells; read-out: Reporter EC50
pEC50: −log10 of the molar value.
test readout: pEC50

# annotated cases, reported pEC50 shown
compound | target entity | test readout | measured value
CC(C)c1nc(C(=O)NCc2ccc(NC(=O)N(C)C)cc2)c2n1CCN(c1ccc(C(=O)N(C)C)cn1)C2 [Example 32] | STAT6 (Homo sapiens) | pEC50 | 8.05
CCn1nc(C(=O)NCc2ccc(NC(=O)N(C)C)cc2)c2c1CCN(c1ccc(-c3nccn3C)cn1)C2 [Example 30] | STAT6 (Homo sapiens) | pEC50 | 8.30
C[C@@H]1Cc2c(c(C(=O)NCc3ccc(NC(=O)N(C)C)cc3)nn2C)CN1c1ccc(-c2nccn2C)cn1 (single isomer, unassigned) [Example 122] | STAT6 (Homo sapiens) | pEC50 | 7.62

a. CC(=O)Nc1ccc(CNC(=O)c2nn(C(C)C)c3c2CN(c2ccc(C(=O)N(C)C)cn2)CC3)cc1 [Example 147]
b. CC(C)n1nc(C(=O)NCc2ccc(NC(=O)N(C)C)cc2)c2c1C[C@H](C)N(c1ccc(C(=O)N(C)C)cn1)C2 [Example 139]
c. CCC1CN(c2ccc(C(=O)N(C)C)cn2)Cc2c(C(=O)NCc3ccc(NC(=O)N(C)C)cc3)nn(C)c21 (racemic) [Example 77]
d. C[C@H]1CN(c2ccc(C(=O)N(C)C)cn2)Cc2c(C(=O)NCc3ccc(NC(=O)N(C)C)cc3)nn(C3CCC3)c21 (single isomer, unassigned) [Example 119]
e. CC(C)n1nc(C(=O)NCc2ccc(NC(=O)N3CC(C#N)C3)cc2)c2c1CCN(c1ccc(C(=O)N(C)C)cn1)C2 [Example 158]
input: Arrange the 5 compounds by rising pEC50, starting with the smallest. # answer = labels listed in requested order
output: a, e, c, b, d

----------
target entity: STAT6 (Homo sapiens, UniProt P42226)
Construct: stably transfected HaCaT keratinocyte cell line, which expresses NanoLuc luciferase reporter gene under the transcriptional control of the STAT6 responsive promoter; endogenous in cells; host or cells: HaCaT keratinocyte reporter cell line (stably transfected with a NanoLuc reporter)
Sequence (P42226 1-847): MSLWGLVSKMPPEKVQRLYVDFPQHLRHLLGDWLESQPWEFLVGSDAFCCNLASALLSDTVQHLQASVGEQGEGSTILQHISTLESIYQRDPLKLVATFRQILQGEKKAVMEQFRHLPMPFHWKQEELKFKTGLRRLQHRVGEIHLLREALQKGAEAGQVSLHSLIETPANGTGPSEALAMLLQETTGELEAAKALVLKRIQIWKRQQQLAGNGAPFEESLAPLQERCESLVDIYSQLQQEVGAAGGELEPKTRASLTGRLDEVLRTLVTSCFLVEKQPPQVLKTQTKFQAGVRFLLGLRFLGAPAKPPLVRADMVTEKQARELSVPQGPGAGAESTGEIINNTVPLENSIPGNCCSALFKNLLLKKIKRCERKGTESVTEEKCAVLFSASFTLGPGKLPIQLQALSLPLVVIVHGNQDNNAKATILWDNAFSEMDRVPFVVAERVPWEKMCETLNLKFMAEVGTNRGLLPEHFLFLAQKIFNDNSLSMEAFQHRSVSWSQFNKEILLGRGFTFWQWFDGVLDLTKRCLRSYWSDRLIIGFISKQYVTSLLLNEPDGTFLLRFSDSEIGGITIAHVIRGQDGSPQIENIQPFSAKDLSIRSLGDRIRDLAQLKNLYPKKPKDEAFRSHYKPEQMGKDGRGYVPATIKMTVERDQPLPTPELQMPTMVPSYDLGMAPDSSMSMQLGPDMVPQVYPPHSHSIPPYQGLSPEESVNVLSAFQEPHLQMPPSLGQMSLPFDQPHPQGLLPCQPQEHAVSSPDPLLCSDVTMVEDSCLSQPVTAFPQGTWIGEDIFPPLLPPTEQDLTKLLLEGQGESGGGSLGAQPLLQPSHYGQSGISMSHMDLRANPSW
assay comment: STAT6 Reporter Luciferase Assay (IL-13 stimulated HaCaT keratinocyte NanoLuc reporter cells)
Format: cell-based
condition set: STAT6 NanoLuc luciferase reporter, IL-13 stimulated HaCaT keratinocyte cells; read-out: Reporter EC50
test readout: EC50 (nM)

# annotated cases, reported EC50 shown
compound | measured value
CC(C)n1nc(C(=O)NCc2ccc(NC(=O)N3CCO[C@H](CO)C3)cc2)c2c1CCN(c1ccc(C(=O)N(C)C)cn1)C2 [Example 159] | 16
CN(C)C(=O)Nc1ccc(CNC(=O)c2nnn3c2CN(c2ccc(C(=O)N(C)C)cn2)CC3)cc1 [Example 24] | 384
Cc1nc(C(=O)NCc2ccc(NC(=O)N(C)C)cc2)c2n1C(C)CN(c1ccc(C(=O)N(C)C)cn1)C2 (single isomer, unassigned) [Example 53] | 8
CC(C)n1nc(C(=O)NCc2ccc(NC(=O)N(C)C)cc2)c2c1CCN(c1ccc(-n3ccccc3=O)cn1)C2 [Example 108] | 30
CC(C)n1nc(C(=O)NCc2ccc(-c3ncc[nH]3)cc2)c2c1C(C(F)(F)F)CN(c1ccc(C(=O)N(C)C)cn1)C2 (single isomer, unassigned) [Example 123] | 41

I. CC(C)n1nc(C(=O)NCc2ccc(NC(=O)N(C)C)cc2)c2c1CCN(c1ccc(N3CC[C@H](F)C3=O)cn1)C2 [Example 84]
II. CC1COC(=O)N1c1ccc(N2CCc3c(c(C(=O)NCc4ccc(NC(=O)N(C)C)cc4)nn3C(C)C)C2)nc1 (stereo not drawn) [Example 99]
input: Compare EC50: is it lower for I or for II ? Use the label to indicate which entry you chose.
output: I
(I: 2 nM, II: 17 nM)

I. CC1c2c(C(=O)NCc3ccc(NC(=O)N(C)C)cc3)nn(C)c2CCN1c1ccc(C(=O)N(C)C)cn1 (racemic) [Example 55]
II. CN(C)C(=O)Nc1ccc(CNC(=O)c2nn(C3CCC3)c3c2CN(c2ccc(C(=O)N(C)C)cn2)CC3)cc1 [Example 96]
input: Compare EC50: is it lower for I or for II ? Use the label to indicate which entry you chose.
output: II
(II: 5 nM, I: 10 nM)
